Outcome measure: pIC50
Lab note: report pIC50 as minus log10 of the concentration in molar units, number only.

In: Lab request: please report pIC50 under test system UniProtKB Q06124 for `Cc1nc(N2CCC3(CC2)OC[C@@H](C)[C@H]3N)c(CO)nc1-c1cccc(Cl)c1Cl`
Sequence (Q06124 whole entry): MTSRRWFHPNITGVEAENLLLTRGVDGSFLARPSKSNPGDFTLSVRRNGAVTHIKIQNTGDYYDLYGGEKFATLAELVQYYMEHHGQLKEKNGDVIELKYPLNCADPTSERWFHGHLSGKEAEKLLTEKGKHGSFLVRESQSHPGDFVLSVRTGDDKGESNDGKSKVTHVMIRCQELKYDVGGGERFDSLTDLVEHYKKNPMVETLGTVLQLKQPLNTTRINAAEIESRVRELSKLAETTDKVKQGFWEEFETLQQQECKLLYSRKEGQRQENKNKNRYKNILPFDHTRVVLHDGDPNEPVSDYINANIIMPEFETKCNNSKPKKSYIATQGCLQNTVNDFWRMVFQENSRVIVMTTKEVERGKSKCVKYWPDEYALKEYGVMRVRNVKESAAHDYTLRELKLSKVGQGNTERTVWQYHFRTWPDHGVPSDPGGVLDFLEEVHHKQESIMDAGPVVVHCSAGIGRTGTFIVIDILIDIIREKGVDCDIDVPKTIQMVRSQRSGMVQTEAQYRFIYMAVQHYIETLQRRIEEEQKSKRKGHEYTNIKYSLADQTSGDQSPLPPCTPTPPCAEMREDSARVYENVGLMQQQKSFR
Out: 9.23
